The measured values listed here are drawn from ChEMBL document CHEMBL5500403.

Experiment: Cytotoxicity against human MT2 cells
Type: toxicity, cell-based
Bridge positions count the residues as written; N and C are the ends. Square brackets hold non-standard residues; d marks the D form. Peptide text beside a SMILES is read from it. S5 = C=CCCC[C@](C)(N)C(=O)O

{"COMPOUND": "CC(=O)NCC(=O)N[C@@]1(C)CCC/C=C\\CCC[C@@](C)(C(=O)N[C@@H](Cc2ccc(O)cc2)C(=O)N[C@@H](CC(C)C)C(=O)N[C@@]2(C)CCC/C=C\\CCC[C@@](C)(C(=O)N[C@@H](Cc3ccc(O)cc3)C(=O)N[C@@H](Cc3c[nH]c4ccccc34)C(N)=O)NC(=O)[C@H](CC(C)C)NC(=O)[C@H](CC(C)C)NC(=O)[C@H](CC(N)=O)NC2=O)NC(=O)[C@H](CC(C)C)NC(=O)[C@H](C)NC(=O)[C@H](CCC(=O)O)NC1=O (Ac-G[S5]EAL[S5]YL[S5]NLL[S5]YW-NH2; staple (Z) 2-6, 9-13)", "MEASUREMENT UNITS": "µM", "CC50": 5.07}
